reported.property: melting point

Solved cases below.
C=C(Cl)CC(C)(Cc1ccccc1)C(=O)Nc1cc2cccc(F)c2nc1C (stereo not drawn) = 121 to 123 °C
CCCCC(C)(Cc1ccccc1)C(=O)Nc1cnc2c(F)cccc2c1 (stereo not drawn) = 135 to 137 °C
C=C(C)CC(Cc1ccccc1)C(=O)Nc1cc2cccc(F)c2nc1C (stereo not drawn) = 97 to 99 °C
C#CCC(C)(Cc1ccccc1)C(=O)Nc1cnc2c(F)cccc2c1 (stereo not drawn) = 189 to 191 °C
Cc1c(NC(=O)C(Cc2ccccc2)CC2(C)CC2)cnc2c(F)cccc12 (stereo not drawn) = 144 to 146 °C

# context switch: different molecule, same melting point
Request: What melting point value was documented for this molecule, CC(Cc1ccccc1)C(=O)Nc1cnc2c(F)cccc2c1 (stereo not drawn) ?
Response: 188 to 190 °C

---

reported.property: melting point

Solved cases below.
Cc1c(NC(=O)C(C)(Cc2ccccc2)CC(F)(F)F)cnc2c(F)cccc12 (centres unmarked) = 106 to 109 °C
CC(F)(F)CC(C)(Cc1ccccc1)C(=O)Nc1cnc2c(F)cccc2c1 (centres unmarked) = 156 to 158 °C
Cc1nc2c(F)cccc2cc1NC(=O)C(C)(Cc1ccccc1)CC1(C)CC1 (centres unmarked) = 151 to 152 °C
Cc1nc2c(Cl)cccc2cc1NC(=O)C(C)(Cc1ccccc1)CC(F)(F)F (centres unmarked) = 47 to 50 °C
CC(Cc1ccccc1)(CC(F)(F)F)C(=O)Nc1cnc2c(F)c(F)ccc2c1 (centres unmarked) = 183 to 186 °C
CC(C)CC(C)(Cc1ccccc1)C(=O)Nc1cnc2c(Cl)cccc2c1 (centres unmarked) = 163 to 165 °C
C=C(C)CC(C)(Cc1ccccc1)C(=O)Nc1cnc2c(F)cccc2c1 (centres unmarked) = 147 to 149 °C

# context switch: different compound, same melting point
Request: What melting point value was documented for this compound, C=CCC(C)(Cc1ccccc1)C(=O)Nc1cnc2c(F)cccc2c1 (centres unmarked) ?
Response: 146 to 149 °C

---

system: Magnaporthe grisea (Pyricularia oryzae); assay: whole plant or invertebrate; assay type: in vivo, Magnaporthe grisea on rice leaf segments cv. Ballila; details: foliar, read-out: control of Magnaporthe grisea
reported.property: pest or weed control at 200 ppm

Cc1nc2c(Cl)cccc2cc1NC(=O)C(C)(Cc1ccccc1)CC(F)(F)F (centres unmarked) = ≥ 80%

Request: What pest or weed control at 200 ppm value was documented for this compound, "Cc1nc2c(F)cccc2cc1NC(=O)[C@@H](Cc1ccccc1)CC(C)(C)C" ?
Response: ≥ 80%

Request: What pest or weed control at 200 ppm value was documented for this compound, CC(Cc1ccccc1)(CC(F)(F)F)C(=O)Nc1cnc2c(F)cccc2c1 (centres unmarked) ?
Response: ≥ 80%

Request: What pest or weed control at 200 ppm value was documented for this compound, "C=C(Cl)C[C@@H](Cc1ccccc1)C(=O)Nc1cc2cccc(F)c2nc1C" ?
Response: ≥ 80%

Request: What pest or weed control at 200 ppm value was documented for this compound, CC(C)(C)CC(Cc1ccccc1)C(=O)Nc1cnc2c(F)cccc2c1 (centres unmarked) ?
Response: ≥ 80%

Request: What pest or weed control at 200 ppm value was documented for this compound, C=C(Cl)CC(C)(Cc1ccccc1)C(=O)Nc1cc2cccc(F)c2nc1C (centres unmarked) ?
Response: ≥ 80%

Request: What pest or weed control at 200 ppm value was documented for this compound, Cc1c(NC(=O)C(C)(Cc2ccccc2)CC2(C)CC2)cnc2c(F)cccc12 (centres unmarked) ?
Response: ≥ 80%

Request: What pest or weed control at 200 ppm value was documented for this compound, Cc1c(NC(=O)C(Cc2ccccc2)CC2(C)CC2)cnc2c(F)cccc12 (centres unmarked) ?
Response: ≥ 80%

Request: What pest or weed control at 200 ppm value was documented for this compound, CC(Cc1ccc(F)cc1)(CC(F)(F)F)C(=O)Nc1cnc2c(F)cccc2c1 (centres unmarked) ?
Response: ≥ 80%

Data origin: patent US20220030867A1
